Target: rat B1R (bradykinin receptor 1) (Rattus norvegicus, UniProt P97583)
Construct: expressed in transfected cells; host or cells: CHO K1 cells
Sequence (P97583 1-337): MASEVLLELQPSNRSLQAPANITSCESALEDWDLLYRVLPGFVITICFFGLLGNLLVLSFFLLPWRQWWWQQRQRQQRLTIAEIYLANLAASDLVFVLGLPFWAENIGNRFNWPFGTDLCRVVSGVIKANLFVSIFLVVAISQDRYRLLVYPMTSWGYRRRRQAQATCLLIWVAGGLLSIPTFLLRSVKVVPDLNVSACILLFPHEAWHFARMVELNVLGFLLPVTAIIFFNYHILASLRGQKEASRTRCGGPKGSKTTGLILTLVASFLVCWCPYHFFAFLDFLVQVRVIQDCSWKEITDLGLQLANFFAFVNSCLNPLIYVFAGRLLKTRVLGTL
Assay: FLIPR Ca2+ assay (Fluo-4) on CHO K1 cells stably transfected with the B1R gene of the rat (rB1R cells): % inhibition at 10 μM / IC50, agonist Des-Arg9-bradykinin
Format: cell-based
Settings: CHO-K1, rat B1R
observed property: inhibition at 10 µM
Answer with the number, then the unit.

{"compound": "O=C(NC1CCc2ccc(C(=O)N3CCC4(CCN(Cc5cccnc5)CC4)CC3)cc21)c1c(F)cccc1Cl (stereo not shown)", "system name": "rat B1R (bradykinin receptor 1) (Rattus norvegicus, UniProt P97583)", "inhibition at 10 µM": "104%"}
{"compound": "O=C(N[C@@H]1CCc2ccc(C(=O)N3CCC4(CCN(c5ccncc5)CC4)C3)cc21)c1cnccc1C(F)(F)F", "system name": "rat B1R (bradykinin receptor 1) (Rattus norvegicus, UniProt P97583)", "inhibition at 10 µM": "101%"}
{"compound": "O=C(NC1CCc2ccc(C(=O)N3CCC4(CCN(Cc5ccncc5)CC4)CC3)cc21)c1ccccc1Cl (stereo not shown)", "system name": "rat B1R (bradykinin receptor 1) (Rattus norvegicus, UniProt P97583)", "inhibition at 10 µM": "98%"}

So, COc1ccc(CN2CCC3(CC2)CCN(C(=O)c2ccc4c(c2)C(NC(=O)c2cc(Cl)ccc2F)CC4)C3)cc1F (stereo not shown) ? Its inhibition at 10 µM was 59%

Reported inhibition at 10 µM of COc1ccc(CN2CCC3(CC2)CCN(C(=O)c2ccc4c(c2)C(NC(=O)c2c(F)cccc2Cl)CC4)CC3)cc1F (stereo not shown) : 89%

Just so you know, measured inhibition at 10 µM for Cc1ccc(F)c(C(=O)NC2c3cc(C(=O)N4CCC5(CC4)CCN(c4ccncc4)CC5)ccc3CC2(C)C)c1Cl (stereo not shown) came out at 103%

// recorded inhibition at 10 µM for O=C(c1ccc2c(c1)C(N(C(=O)c1ccccc1Cl)C1CC1)CC2)N1CCC2(CC1)CCN(c1ccc(F)cc1)CC2 (stereo not shown) : 64%

###

biological target: rat B1R (bradykinin receptor 1) (Rattus norvegicus); construct: expressed in transfected cells; host or cells: CHO K1 cells; experiment: FLIPR Ca2+ assay (Fluo-4) on CHO K1 cells stably transfected with the B1R gene of the rat (rB1R cells): % inhibition at 10 μM / IC50, agonist Des-Arg9-bradykinin; assay type: cell-based; settings: CHO-K1, rat B1R
observed property: inhibition at 10 µM (%)
Dear colleague, please return just the value in %, with no unit written.

{"compound": "O=C(NC1CCc2ccc(C(=O)N3CCC4(CC3)CCN(C(=O)c3ccc(F)cc3Cl)CC4)cc21)c1ccccc1Cl (stereo not shown) [IND_CC-599]", "inhibition at 10 µM [%]": 96}
{"compound": "CN(C(=O)c1sccc1Cl)C1CCc2ccc(C(=O)N3CCC4(CC3)CCN(c3ccncc3)CC4)cc21 (stereo not shown) [Ind_CC-016]", "inhibition at 10 µM [%]": 102}
{"compound": "O=C(NC1CCc2ccc(C(=O)N3CCC4(CCN(Cc5ccc(F)cc5Cl)CC4)CC3)cc21)c1cccc(Cl)c1Cl (stereo not shown) [IND_CC-726]", "inhibition at 10 µM [%]": 67}

Now for another entry.
// sample CC1(C)CC(NC(=O)c2ccccc2Cl)c2cc(C(=O)N3CCC4(CC3)CCN(c3ccncc3)CC4)ccc21 (stereo not shown) [IND_CC-292] , its inhibition at 10 µM was 105

###

Quick reference: inhibition at 10 µM of the listed items.
Target: rat B1R (bradykinin receptor 1) (Rattus norvegicus)
Construct: expressed in transfected cells; host or cells: CHO K1 cells
Sequence (P97583 1-337): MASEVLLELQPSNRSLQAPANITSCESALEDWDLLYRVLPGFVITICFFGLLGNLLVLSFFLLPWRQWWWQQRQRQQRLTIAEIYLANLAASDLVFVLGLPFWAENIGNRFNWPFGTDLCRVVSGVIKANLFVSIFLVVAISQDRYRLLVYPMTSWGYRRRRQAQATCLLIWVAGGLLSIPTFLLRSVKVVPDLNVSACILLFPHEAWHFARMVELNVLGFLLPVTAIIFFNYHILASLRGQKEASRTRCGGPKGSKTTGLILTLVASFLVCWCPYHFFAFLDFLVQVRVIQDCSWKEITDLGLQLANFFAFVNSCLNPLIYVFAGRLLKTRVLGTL
Test: FLIPR Ca2+ assay (Fluo-4) on CHO K1 cells stably transfected with the B1R gene of the rat (rB1R cells): % inhibition at 10 μM / IC50, agonist Des-Arg9-bradykinin
Type: cell-based
Conditions: CHO-K1, rat B1R
Form entry: value (%) — number only.

{"compound": "CN(C1CCc2ccc(C(=O)N3CCC4(CC3)CCN(c3ccncc3)CC4)cc21)S(=O)(=O)c1c(Cl)cc(C(F)(F)F)cc1Cl (stereo not shown) [IND_CC-403]", "inhibition at 10 µM / %": 97}
{"compound": "CN([C@@H]1CCc2ccc(C(=O)N3CCC4(CCN(c5ccncc5)CC4)C3)cc21)S(=O)(=O)c1ccccc1Cl [Example H-136]", "inhibition at 10 µM / %": 101}
{"compound": "O=C(N[C@@H]1CCc2c(C(=O)N3CCC4(CC3)CCN(c3ccncc3)CC4)cccc21)c1ccccc1Cl [Example H-164]", "inhibition at 10 µM / %": 77}
{"compound": "CN(C(=O)c1c(F)cccc1F)C1CCc2ccc(C(=O)N3CCC4(CC3)CCN(c3ccncc3)CC4)cc21 (stereo not shown) [IND_CC-384]", "inhibition at 10 µM / %": 104}
{"compound": "O=C(Nc1cc(F)cc(F)c1)N1CCC2(CC1)CCN(C(=O)c1ccc3c(c1)C(N(C(=O)c1ccccc1Cl)C1CC1)CC3)C2 (stereo not shown) [IND_CC-720]", "inhibition at 10 µM / %": 80}

Entry CN(C1CCc2ccc(C(=O)N3CCC4(CC3)CCN(c3ccncc3)CC4)cc21)S(=O)(=O)c1c(Cl)cc(Cl)cc1Cl (stereo not shown) [IND_CC-406] , rat B1R (bradykinin receptor 1) (Rattus norvegicus) data, inhibition at 10 µM value: 102

Entry CC(C)(C)CC(=O)N1CCC2(CC1)CCN(C(=O)c1ccc3c(c1)C(N(C(=O)c1ccccc1Cl)C1CC1)CC3)C2 (stereo not shown) [IND_CC-604] : inhibition at 10 µM on rat B1R (bradykinin receptor 1) (Rattus norvegicus) = 94

###

Biological target: human B1R (bradykinin receptor 1) (Homo sapiens, UniProt P46663)
Construct: expressed in transfected cells; host or cells: CHO K1 cells
Sequence (P46663 1-353): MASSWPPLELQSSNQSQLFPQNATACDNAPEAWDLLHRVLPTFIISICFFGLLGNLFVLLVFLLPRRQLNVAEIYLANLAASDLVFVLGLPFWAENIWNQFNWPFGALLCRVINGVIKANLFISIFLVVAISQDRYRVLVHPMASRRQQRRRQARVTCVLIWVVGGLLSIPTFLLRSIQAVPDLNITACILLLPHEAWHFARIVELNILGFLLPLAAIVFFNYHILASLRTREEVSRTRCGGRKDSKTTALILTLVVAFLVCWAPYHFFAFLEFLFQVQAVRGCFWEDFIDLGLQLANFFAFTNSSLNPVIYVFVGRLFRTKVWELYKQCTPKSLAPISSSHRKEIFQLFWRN
Assay: FLIPR Ca2+ assay (Fluo-4) on CHO K1 cells stably transfected with the human B1R gene (hB1R cells): % inhibition at 10 μM / IC50, agonist Lys-Des-Arg9-bradykinin
Format: cell-based
Details: CHO-K1, human B1R
observed property: inhibition at 10 µM (%)
Numeric only. Scale: %

{"compound": "O=C(c1ccc2c(c1)[C@H](NS(=O)(=O)c1c(Cl)cccc1Cl)CC2)N1CCC2(CCN(c3ccncc3)CC2)C1 [Example H-119]", "inhibition at 10 µM (%)": 100}
{"compound": "Cc1cccc(C)c1C(=O)NC1CC(C)(C)c2ccc(C(=O)N3CCC4(CC3)CCN(c3ccncc3)CC4)cc21 (centres unmarked) [IND_CC-309]", "inhibition at 10 µM (%)": 97}
{"compound": "CC1(C)Cc2ccc(C(=O)N3CCC4(CC3)CCN(c3ccncc3)CC4)cc2C1NC(=O)c1ccc(Cl)s1 (centres unmarked) [Ind_CC-066]", "inhibition at 10 µM (%)": 82}

Looking up CN(C(=O)c1ccccc1Cl)C1CCc2ccc(C(=O)N3CCC4(CC3)CCC(c3ccc(F)cc3)(N(C)C)CC4)cc21 (centres unmarked) [Ind_CC-110] , I found its inhibition at 10 µM recorded as 52

Item: O=C(Cc1ccccc1Cl)NC1CCc2ccc(C(=O)N3CCC4(CC3)CCN(c3ccncc3)C4)cc21 (centres unmarked) [Ind_CC-045] | inhibition at 10 µM: 100

GET /value?item= CC1(C)CC(NC(=O)c2c(F)cccc2Cl)c2cc(C(=O)N3CCC4(CC3)CCN(c3ccncc3)CC4)ccc21 (centres unmarked) [IND_CC-279] &field=inhibition at 10 µM returns 100

Field inhibition at 10 µM (entry O=C(N[C@@H]1CCc2ccc(C(=O)N3CCC4(CC3)CCN(c3ccncc3)C4)cc21)c1cncnc1 [Example H-86] ) reads 95

So for O=C(c1ccc2c(c1)[C@H](NS(=O)(=O)c1c(Cl)cccc1C(F)(F)F)CC2)N1CCC2(CCN(c3ccncc3)CC2)C1 [Example H-149] , the logged inhibition at 10 µM turned out to be 100

According to the records, this compound O=C(N[C@@H]1CCc2ccc(C(=O)N3CCC4(CCN(c5ccncc5)CC4)C3)cc21)c1cnccc1C(F)(F)F [Example H-115] displays inhibition at 10 µM of 100

The values you see were collected from patent US8455475B2.
